Assay: Tissue PK, LC-MS/MS
Format: in vivo, minipig
Conditions: minipig, skin, po, 7.3 mg/kg, Selumetinib concentration in tissues, Skin, Median (WT), WT minipigs n = 8, 2 h after single oral 7.3 mg/kg
PARAMETER MEASURED: concentration at 2 h (ng/g)
// units = ng/g; emit number, no label

Kindly note the recorded concentration at 2 h for `Cn1cnc2c(F)c(Nc3ccc(Br)cc3Cl)c(C(=O)NOCCO)cc21` , which is 21

* * *

Assay: Plasma PK study in WT and NF1 minipigs (LC-MS/MS, noncompartmental)
Format: in vivo, minipig
Settings: minipig, po, 7.3 mg/kg, all 16 minipigs (WT and NF1), median (range), single oral 7.3 mg/kg
PARAMETER MEASURED: half-life (h)
// units = h; emit number, no label

Kindly note the recorded half-life for Cn1cnc2c(F)c(Nc3ccc(Br)cc3Cl)c(C(=O)NOCCO)cc21 [selumetinib] , which is 7.9

* * *

Test: Plasma PK study in WT and NF1 minipigs (LC-MS/MS, noncompartmental)
Assay type: in vivo, minipig
Settings: female, minipig, po, 7.3 mg/kg, individual WT F minipigs, single oral 7.3 mg/kg, read-out: Cmax
PARAMETER MEASURED: Cmax (ng/mL)
// units = ng/mL; emit number, no label

Kindly note the recorded Cmax for `Cn1cnc2c(F)c(Nc3ccc(Br)cc3Cl)c(C(=O)NOCCO)cc21` , which is 636

* * *

Assay: Plasma PK study in WT and NF1 minipigs (LC-MS/MS, noncompartmental)
Assay type: in vivo, minipig
Settings: female, minipig, individual WT F minipigs, single oral 7.3 mg/kg
PARAMETER MEASURED: k el (s⁻¹)
// units = s⁻¹; emit number, no label

Kindly note the recorded k el for `Cn1cnc2c(F)c(Nc3ccc(Br)cc3Cl)c(C(=O)NOCCO)cc21` , which is 2.78e-05

* * *

Assay: Plasma PK study in WT and NF1 minipigs (LC-MS/MS, noncompartmental)
Format: in vivo, minipig
Conditions: minipig, po, 7.3 mg/kg, all 16 minipigs (WT and NF1), median (range), single oral 7.3 mg/kg
PARAMETER MEASURED: AUC(0-inf) (ng·h/mL)
// units = ng·h/mL; emit number, no label

Kindly note the recorded AUC(0-inf) for `Cn1cnc2c(F)c(Nc3ccc(Br)cc3Cl)c(C(=O)NOCCO)cc21` , which is 5360

* * *

Assay: Tissue PK, LC-MS/MS
Format: in vivo, minipig
Conditions: minipig, optic nerve, po, 7.3 mg/kg, Selumetinib concentration in tissues, Optic nerve, Median (NF1), NF1 minipigs n = 8, 2 h after single oral 7.3 mg/kg
PARAMETER MEASURED: concentration at 2 h (ng/g)
// units = ng/g; emit number, no label

Kindly note the recorded concentration at 2 h for Cn1cnc2c(F)c(Nc3ccc(Br)cc3Cl)c(C(=O)NOCCO)cc21 [selumetinib] , which is 43

* * *

Assay: Plasma PK study in WT and NF1 minipigs (LC-MS/MS, noncompartmental)
Format: in vivo, minipig
Conditions: female, minipig, po, 7.3 mg/kg, individual WT F minipigs, single oral 7.3 mg/kg, read-out: AUC0?∞
PARAMETER MEASURED: AUC (ng·h/mL)
// units = ng·h/mL; emit number, no label

Kindly note the recorded AUC for `Cn1cnc2c(F)c(Nc3ccc(Br)cc3Cl)c(C(=O)NOCCO)cc21` , which is 3680

* * *

Experiment: Plasma PK study in WT and NF1 minipigs (LC-MS/MS, noncompartmental)
Type: in vivo, minipig
Conditions: all 16 minipigs (WT and NF1), median (range), single oral 7.3 mg/kg
PARAMETER MEASURED: Clast (ng/mL)
// units = ng/mL; emit number, no label

Kindly note the recorded Clast for Cn1cnc2c(F)c(Nc3ccc(Br)cc3Cl)c(C(=O)NOCCO)cc21 [selumetinib] , which is 22.7

* * *

Test: Tissue PK, LC-MS/MS
Format: in vivo, minipig
Conditions: male, minipig, sciatic nerve, po, 7.3 mg/kg, Selumetinib concentration in tissues, Sciatic nerve, individual NF1/M minipigs, 2 h after single oral 7.3 mg/kg
PARAMETER MEASURED: concentration at 2 h (ng/g)
// units = ng/g; emit number, no label

Kindly note the recorded concentration at 2 h for `Cn1cnc2c(F)c(Nc3ccc(Br)cc3Cl)c(C(=O)NOCCO)cc21` , which is 29

* * *

Experiment: Dose-finding study, plasma PK in wild-type minipigs
Format: in vivo, minipig
Settings: female; WT minipig, single oral 600 mg human equivalent dose, plasma (data not shown)
Method: This was conducted to determine the dose required to reach the human equivalent therapeutic exposure. Human equivalent doses of 50, 75, 300, and 600 mg were tested. Each dose was administered orally to a 5-month-old wild-type female minipig. Blood was collected immediately prior to drug administration (T = 0) and 1, 2, 6, and 24 h after drug administration.
PARAMETER MEASURED: Cmax (ng/mL)
// units = ng/mL; emit number, no label

Kindly note the recorded Cmax for `Cn1cnc2c(F)c(Nc3ccc(Br)cc3Cl)c(C(=O)NOCCO)cc21` , which is 670

* * *

Assay: Plasma PK study in WT and NF1 minipigs (LC-MS/MS, noncompartmental)
Type: in vivo, minipig
Conditions: minipig, po, 7.4 mg/kg, NF1 minipigs, 7.4 mg/kg single oral dose, median (range)
PARAMETER MEASURED: half-life (h)
// units = h; emit number, no label

Kindly note the recorded half-life for `Cn1cnc2c(F)c(Nc3ccc(Br)cc3Cl)c(C(=O)NOCCO)cc21` , which is 7.8

* * *

Assay: Tissue PK, LC-MS/MS
Assay type: in vivo, minipig
Settings: minipig, sciatic nerve, po, 7.3 mg/kg, Selumetinib concentration in tissues, Sciatic nerve, Median (WT), WT minipigs n = 8, 2 h after single oral 7.3 mg/kg
PARAMETER MEASURED: concentration at 2 h
Give the value; after it, write the unit.

Kindly note the recorded concentration at 2 h for Cn1cnc2c(F)c(Nc3ccc(Br)cc3Cl)c(C(=O)NOCCO)cc21 [selumetinib] , which is 26 ng/g

* * *

Test: Plasma PK study in WT and NF1 minipigs (LC-MS/MS, noncompartmental)
Assay type: in vivo, minipig
Conditions: minipig, po, 7.4 mg/kg, NF1 minipigs, 7.4 mg/kg single oral dose, median (range), read-out: Tmax
PARAMETER MEASURED: Tmax (h)
// units = h; emit number, no label

Kindly note the recorded Tmax for `Cn1cnc2c(F)c(Nc3ccc(Br)cc3Cl)c(C(=O)NOCCO)cc21` , which is 1.1

* * *

Experiment: Plasma PK study in WT and NF1 minipigs (LC-MS/MS, noncompartmental)
Type: in vivo, minipig
Details: minipig, all 16 minipigs (WT and NF1), median (range), single oral 7.3 mg/kg
PARAMETER MEASURED: k el (s⁻¹)
// units = s⁻¹; emit number, no label

Kindly note the recorded k el for `Cn1cnc2c(F)c(Nc3ccc(Br)cc3Cl)c(C(=O)NOCCO)cc21` , which is 2.78e-05

* * *

Assay: Plasma PK study in WT and NF1 minipigs (LC-MS/MS, noncompartmental)
Format: in vivo, minipig
Settings: female, minipig, po, 7.3 mg/kg, individual NF1 F minipigs, single oral 7.3 mg/kg, read-out: AUC0?∞
Procedure: Plasma isolation was performed as described in a previous study.[13] […] Tissues were harvested and immediately transferred to cryovials and stored at −80°C until analysis. Standard curves and controls were generated using corresponding untreated tissue. Skin tissue was treated with collagenase, and all organ tissues were homogenized. Liquid extraction with ethyl acetate was then performed, followed by analysis. […] The chromatographic separation was performed as described.[13] […]
PARAMETER MEASURED: AUC (ng·h/mL)
// units = ng·h/mL; emit number, no label

Kindly note the recorded AUC for `Cn1cnc2c(F)c(Nc3ccc(Br)cc3Cl)c(C(=O)NOCCO)cc21` , which is 3560

* * *

Assay: Dose-finding study, plasma PK in wild-type minipigs
Type: in vivo, minipig
Conditions: female; WT minipig, single oral 300 mg human equivalent dose, plasma (data not shown)
PARAMETER MEASURED: Cmax
Give the value; after it, write the unit.

Kindly note the recorded Cmax for `Cn1cnc2c(F)c(Nc3ccc(Br)cc3Cl)c(C(=O)NOCCO)cc21` , which is 1000 ng/mL

* * *

Assay: Tissue PK, LC-MS/MS
Format: in vivo, minipig
Conditions: minipig, po, 7.3 mg/kg, selumetinib concentration, range over all tissues, cerebral cortex, optic nerve, sciatic nerve, skin; all minipigs, 2 h after single oral 7.3 mg/kg
PARAMETER MEASURED: concentration at 2 h

Kindly note the recorded concentration at 2 h for Cn1cnc2c(F)c(Nc3ccc(Br)cc3Cl)c(C(=O)NOCCO)cc21 [selumetinib] , which is 4 to 155 ng/g
